Every entry's value here was drawn from patent EP4818187A1.

test system: 22RV1 (human prostate cancer); assay: In vitro inhibitory effect against human tumor cells (SRB); format: cell-based; details: 22Rv1, 72 h, 22RV1, SRB, With addition of βGU (1 µg/well), 3 days
Give IC50 for every item shown.
Write down the numeric answer in nM and omit the unit.

q: Notebook: pull reported IC50 for 22RV1 (human prostate cancer), entry CC[C@H](C)[C@@H]([C@@H](CC(=O)N1CCC[C@H]1[C@H](OC)[C@@H](C)C(=O)N[C@H](C)[C@@H](O)c1ccccc1)OC)N(C)C(=O)[C@@H](NC(=O)[C@H](C(C)C)[N+](C)(CC)Cc1ccc(O[C@@H]2O[C@H](C(=O)[O-])[C@@H](O)[C@H](O)[C@H]2O)cc1OCc1cn(CCCOCC(=O)Nc2ccc(-c3ccc(/N=N/c4ccc5c(S(=O)(=O)[O-])cc(S(=O)(=O)[O-])c(N)c5c4O)c(C)c3)cc2C)nn1)C(C)C.[Na+].[Na+] (some centres unmarked)
a: 2.2

q: And for `CC[C@H](C)[C@@H]([C@@H](CC(=O)N1CCC[C@H]1[C@H](OC)[C@@H](C)C(=O)N[C@H](C)[C@@H](O)c1ccccc1)OC)N(C)C(=O)[C@@H](NC(=O)[C@H](C(C)C)[N+](C)(C)Cc1ccc(O[C@@H]2O[C@H](C(=O)[O-])[C@@H](O)[C@H](O)[C@H]2O)cc1OCc1cn(CCOCCC(=O)Nc2ccc(-c3ccc(/N=N/c4ccc5c(S(=O)(=O)[O-])cc(S(=O)(=O)[O-])c(N)c5c4O)c(C)c3)cc2C)nn1)C(C)C.[Na+].[Na+]` ?
a: 3.8

q: Try this compound too: `CC[C@H](C)[C@@H]([C@@H](CC(=O)N1CCC[C@H]1[C@H](OC)[C@@H](C)C(=O)N[C@H](C)[C@@H](O)c1ccccc1)OC)N(C)C(=O)[C@@H](NC(=O)[C@H](C(C)C)[N+](C)(C)Cc1ccc(O[C@@H]2O[C@H](C(=O)[O-])[C@@H](O)[C@H](O)[C@H]2O)cc1OCc1cn(CCCOCC(=O)Nc2ccc(-c3ccc(/N=N/c4ccc5c(S(=O)(=O)[O-])cc(S(=O)(=O)[O-])c(N)c5c4O)c(C)c3)cc2C)nn1)C(C)C.[Na+].[Na+]`
a: 4.4

q: `CC[C@H](C)[C@@H]([C@@H](CC(=O)N1CCC[C@H]1[C@H](OC)[C@@H](C)C(=O)N[C@H](C)[C@@H](O)c1ccccc1)OC)N(C)C(=O)[C@@H](NC(=O)[C@H](C(C)C)[N+](C)(C)Cc1ccc(O[C@@H]2O[C@H](C(=O)[O-])[C@@H](O)[C@H](O)[C@H]2O)cc1OCc1cn(CCCCCC(=O)Nc2ccc(-c3ccc(/N=N/c4ccc5c(S(=O)(=O)[O-])cc(S(=O)(=O)[O-])c(N)c5c4O)c(C)c3)cc2C)nn1)C(C)C.[Na+].[Na+]` , same question.
a: 7

q: Now try `CC[C@H](C)[C@@H]([C@@H](CC(=O)N1CCC[C@H]1[C@H](OC)[C@@H](C)C(=O)N[C@H](C)[C@@H](OCc1ccc(O[C@@H]2O[C@H](C(=O)[O-])[C@@H](O)[C@H](O)[C@H]2O)cc1OCc1cn(CCCCCC(=O)Nc2ccc(-c3ccc(/N=N/c4ccc5c(S(=O)(=O)[O-])cc(S(=O)(=O)[O-])c(N)c5c4O)c(C)c3)cc2C)nn1)c1ccccc1)OC)N(C)C(=O)[C@@H](NC(=O)[C@H](C(C)C)N(C)C)C(C)C.[Na+].[Na+].[Na+]` .
a: 7.5
